Cited source: patent US9133245B2

System: phosphatidylserine (PS)-containing liposomes (PC/PS vesicles)
Experiment: Liposome binding assay (Trp-to-dansyl FRET) with large unilamellar vesicles
Design: key: “Y” means PS-selective (or apoptotic cell-specific) binding is observed; N means no or insignificant membrane binding is observed; “Nonselective” refers to membrane binding independent on PS
Details: dansyl FRET assay
Source text: The binding of cLac to lipid membrane can be analyzed by any method known it the art. For example, by the fluorescence assay (Trp-to-dansyl FRET) described herein. […] The peptide-vesicle binding was monitored by the fluorescence resonance energy transfer (FRET) from Trp to the dansyl group. Emission of sensitized dansyl is monitored at 520 nm and Trp emission is monitored near 350 nm. […]
Non-standard residues stand in square brackets, D forms with d. No end group written: not given here. Bip = N[C@@H](Cc1ccc(-c2ccccc2)cc1)C(=O)O
readout label: Liposome binding assay

Example entries and their recorded answers appear below.
Entry WBipGHIQGppGRGGAD [cLac-PPG-2] has what Liposome binding assay?
Y

Entry cLac-A3: alanine for glycine linker variant G10A, SEQ. ID. NO. 40 (WFGHIQGGRAGGD; cyclic) has what Liposome binding assay?
N

Entry cLac-1: first cyclic lactadherin mimetic with Trp and Phe as membrane insertion motif, SEQ. ID. NO. 38 (WFGHIQGGRGGGD; cyclic) has what Liposome binding assay?
N

Entry Lac-1: cLac variant peptide, SEQ. ID. NO. 35 (WGHIQGRGGGD) has what Liposome binding assay?
N

Entry D-WBipGHIQGGRGGGD (cyclo([dW][Bip]GHIQGGRGGGD); SMILES CC[C@H](C)[C@@H]1NC(=O)[C@H](Cc2c[nH]cn2)NC(=O)CNC(=O)[C@H](Cc2ccc(-c3ccccc3)cc2)NC(=O)[C@@H](Cc2c[nH]c3ccccc23)NC(=O)[C@H](CC(=O)O)NC(=O)CNC(=O)CNC(=O)CNC(=O)[C@H](CCCNC(=N)N)NC(=O)CNC(=O)CNC(=O)[C@H](CCC(N)=O)NC1=O) [cLac-D-Trp] has what Liposome binding assay?
Y

Entry WBipGHIQGGRGGGGGD (cyclo(W[Bip]GHIQGGRGGGGGD); SMILES CC[C@H](C)[C@@H]1NC(=O)[C@H](Cc2c[nH]cn2)NC(=O)CNC(=O)[C@H](Cc2ccc(-c3ccccc3)cc2)NC(=O)[C@H](Cc2c[nH]c3ccccc23)NC(=O)[C@H](CC(=O)O)NC(=O)CNC(=O)CNC(=O)CNC(=O)CNC(=O)CNC(=O)[C@H](CCCNC(=N)N)NC(=O)CNC(=O)CNC(=O)[C@H](CCC(N)=O)NC1=O) [cLac-25G] has what Liposome binding assay?
Y

Entry WBipGHIQAGRGGGD (cyclo(W[Bip]GHIQAGRGGGD); SMILES CC[C@H](C)[C@@H]1NC(=O)[C@H](Cc2c[nH]cn2)NC(=O)CNC(=O)[C@H](Cc2ccc(-c3ccccc3)cc2)NC(=O)[C@H](Cc2c[nH]c3ccccc23)NC(=O)[C@H](CC(=O)O)NC(=O)CNC(=O)CNC(=O)CNC(=O)[C@H](CCCNC(=N)N)NC(=O)CNC(=O)[C@H](C)NC(=O)[C@H](CCC(N)=O)NC1=O) [cLac-A1] has what Liposome binding assay?
Y

Entry WBipGHIQGGRGGGD (cyclo(W[Bip]GHIQGGRGGGD); SMILES CC[C@H](C)[C@@H]1NC(=O)[C@H](Cc2c[nH]cn2)NC(=O)CNC(=O)[C@H](Cc2ccc(-c3ccccc3)cc2)NC(=O)[C@H](Cc2c[nH]c3ccccc23)NC(=O)[C@H](CC(=O)O)NC(=O)CNC(=O)CNC(=O)CNC(=O)[C@H](CCCNC(=N)N)NC(=O)CNC(=O)CNC(=O)[C@H](CCC(N)=O)NC1=O) [cLac-2, biphenylalanine replaces Phe] has what Liposome binding assay?
Y

More entries:
Entry WBipGHIQGARGGGD (cyclo(W[Bip]GHIQGARGGGD); SMILES CC[C@H](C)[C@@H]1NC(=O)[C@H](Cc2c[nH]cn2)NC(=O)CNC(=O)[C@H](Cc2ccc(-c3ccccc3)cc2)NC(=O)[C@H](Cc2c[nH]c3ccccc23)NC(=O)[C@H](CC(=O)O)NC(=O)CNC(=O)CNC(=O)CNC(=O)[C@H](CCCNC(=N)N)NC(=O)[C@H](C)NC(=O)CNC(=O)[C@H](CCC(N)=O)NC1=O) [cLac-A2] has what Liposome binding assay?
Y

Entry Lac-1R: cLac variant peptide, SEQ. ID. NO. 36 (GGGRGQIHGWD) has what Liposome binding assay?
N

Entry cLac-22G: cLac variant with di-Gly in linker II, SEQ. ID. NO. 42 (WFGHIQGGRGGD; cyclic) has what Liposome binding assay?
N

Entry WBipGHIQGGGRGGGD (cyclo(W[Bip]GHIQGGGRGGGD); SMILES CC[C@H](C)[C@@H]1NC(=O)[C@H](Cc2c[nH]cn2)NC(=O)CNC(=O)[C@H](Cc2ccc(-c3ccccc3)cc2)NC(=O)[C@H](Cc2c[nH]c3ccccc23)NC(=O)[C@H](CC(=O)O)NC(=O)CNC(=O)CNC(=O)CNC(=O)[C@H](CCCNC(=N)N)NC(=O)CNC(=O)CNC(=O)CNC(=O)[C@H](CCC(N)=O)NC1=O) [cLac-33G] has what Liposome binding assay?
Y

Entry WBipGHppGQGGRGGGD [cLac-PPG-0] has what Liposome binding assay?
Y

Entry WBipGHIQGRGGGD (cyclo(W[Bip]GHIQGRGGGD); SMILES CC[C@H](C)[C@@H]1NC(=O)[C@H](Cc2c[nH]cn2)NC(=O)CNC(=O)[C@H](Cc2ccc(-c3ccccc3)cc2)NC(=O)[C@H](Cc2c[nH]c3ccccc23)NC(=O)[C@H](CC(=O)O)NC(=O)CNC(=O)CNC(=O)CNC(=O)[C@H](CCCNC(=N)N)NC(=O)CNC(=O)[C@H](CCC(N)=O)NC1=O) [cLac-13G] has what Liposome binding assay?
Y

Entry DWBipGHIQGGRGGG (DW[Bip]GHIQGGRGGG; not fully specified) [cLac-linear, ID; NO; 43] has what Liposome binding assay?
N

----------
tested on: phosphatidylserine (PS)-containing liposomes (PC/PS vesicles); assay: Liposome binding assay (Trp-to-dansyl FRET) with large unilamellar vesicles; parameters: key: “Y” means PS-selective (or apoptotic cell-specific) binding is observed; N means no or insignificant membrane binding is observed; “Nonselective” refers to membrane binding independent on PS; details: dansyl FRET assay
Non-standard residues stand in square brackets, D forms with d. Bip = N[C@@H](Cc1ccc(-c2ccccc2)cc1)C(=O)O
readout label: Liposome binding assay

Entry WBipGHIQGGRGGAD (cyclo(W[Bip]GHIQGGRGGAD); SMILES CC[C@H](C)[C@@H]1NC(=O)[C@H](Cc2c[nH]cn2)NC(=O)CNC(=O)[C@H](Cc2ccc(-c3ccccc3)cc2)NC(=O)[C@H](Cc2c[nH]c3ccccc23)NC(=O)[C@H](CC(=O)O)NC(=O)[C@H](C)NC(=O)CNC(=O)CNC(=O)[C@H](CCCNC(=N)N)NC(=O)CNC(=O)CNC(=O)[C@H](CCC(N)=O)NC1=O) [cLac-A5] has what Liposome binding assay?
Y

Entry Lac-2: cLac variant peptide, SEQ. ID. NO. 37 (WGHIQGGRGGGD) has what Liposome binding assay?
N

Entry cLac-A4: alanine for glycine linker variant G11A, SEQ. ID. NO. 41 (WFGHIQGGRGAGD; cyclic) has what Liposome binding assay?
N

Entry WBipGHIQGGRGGGGD (cyclo(W[Bip]GHIQGGRGGGGD); SMILES CC[C@H](C)[C@@H]1NC(=O)[C@H](Cc2c[nH]cn2)NC(=O)CNC(=O)[C@H](Cc2ccc(-c3ccccc3)cc2)NC(=O)[C@H](Cc2c[nH]c3ccccc23)NC(=O)[C@H](CC(=O)O)NC(=O)CNC(=O)CNC(=O)CNC(=O)CNC(=O)[C@H](CCCNC(=N)N)NC(=O)CNC(=O)CNC(=O)[C@H](CCC(N)=O)NC1=O) [cLac-24G] has what Liposome binding assay?
Y
